Exercise: state measured pIC50 for each of the molecules provided.
Biological target: Potassium voltage-gated channel subfamily A member 5 (Homo sapiens, UniProt P22460)
Sequence (P22460 whole entry): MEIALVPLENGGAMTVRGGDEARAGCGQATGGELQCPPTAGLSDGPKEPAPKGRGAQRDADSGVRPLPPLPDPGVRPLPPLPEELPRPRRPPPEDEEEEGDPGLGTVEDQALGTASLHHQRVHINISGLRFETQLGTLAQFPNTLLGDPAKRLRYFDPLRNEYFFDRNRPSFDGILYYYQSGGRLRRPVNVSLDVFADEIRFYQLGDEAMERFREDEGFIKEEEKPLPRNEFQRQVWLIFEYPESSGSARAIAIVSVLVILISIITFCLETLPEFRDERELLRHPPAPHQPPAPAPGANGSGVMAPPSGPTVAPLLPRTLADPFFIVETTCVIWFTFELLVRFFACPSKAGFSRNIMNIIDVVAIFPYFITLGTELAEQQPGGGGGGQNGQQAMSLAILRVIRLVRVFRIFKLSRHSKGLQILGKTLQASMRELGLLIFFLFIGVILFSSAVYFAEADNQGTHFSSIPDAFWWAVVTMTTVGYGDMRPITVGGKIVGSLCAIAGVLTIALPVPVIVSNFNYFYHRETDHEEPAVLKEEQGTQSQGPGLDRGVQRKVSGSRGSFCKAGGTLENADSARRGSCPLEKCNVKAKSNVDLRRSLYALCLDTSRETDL
Experiment: Inhibition of human Kv1.5 channel expressed in mouse L929 cells assessed as blockade of ultra rapidly activating potassium current by voltage clamp technique
When answering, recall that pIC50 equals minus log10 of the concentration in mol/L, and write that number alone.

Input line: Would you mind telling me what pIC50 value was observed for CCc1ccc(S(=O)(=O)N[C@@H]2c3cc(C(=O)N(CC)Cc4ccccc4OC)cnc3OC(C)(C)[C@H]2O)cc1 (racemic) ?
Output line: 5.68

Input line: Try this molecule too: CCc1ccc(S(=O)(=O)N[C@@H]2c3cc(C(=O)N(CC)c4cc(F)ccc4F)cnc3OC(C)(C)[C@H]2O)cc1 (racemic)
Output line: 6.04

Input line: Now give it for CCc1ccc(S(=O)(=O)N[C@@H]2c3cc(C(=O)N(CC)c4ccccc4)cnc3OC(C)(C)[C@H]2O)cc1 (racemic) too.
Output line: 6.42

Input line: Now the molecule CCc1ccc(S(=O)(=O)N[C@@H]2c3cc(C(=O)N(CC)c4cccc(C)c4)cnc3OC(C)(C)[C@H]2O)cc1 (racemic)
Output line: 6.11

Input line: Moving on to CCc1ccc(S(=O)(=O)N[C@@H]2c3cc(C(=O)N(CC)Cc4ccc(C)cc4)cnc3OC(C)(C)[C@H]2O)cc1 (racemic)
Output line: 5.81

* * *

Answer each item with its documented IC50.
Molecular target: UniProt P22460
Test: Inhibition of human Kv1.5 channel expressed in mouse L929 cells assessed as blockade of ultra rapidly activating potassium current by voltage clamp technique
Answer by giving the amount and then stating its unit.

Input line: Given CCc1ccc(S(=O)(=O)N[C@@H]2c3cc(C(=O)Nc4ccc(Br)cc4)ccc3OC(C)(C)[C@H]2O)cc1 (racemic) , state its recorded IC50.
Output line: 316 nM

Input line: And the next one, CCc1ccc(S(=O)(=O)N[C@@H]2c3cc(C(=O)N(CC)Cc4ccc(OC)cc4)cnc3OC(C)(C)[C@H]2O)cc1 (racemic) ?
Output line: 605 nM

Input line: // repeat for CCc1ccc(S(=O)(=O)N[C@@H]2c3cc(C(=O)N4CCC[C@H]4CNc4c(C)cccc4C)ccc3OC(C)(C)[C@H]2O)cc1 (racemic) and report
Output line: 60 nM

Input line: Consider next the molecule CCc1ccc(S(=O)(=O)N[C@H]2CCCc3ccc(N(Cc4cccc(C)n4)C(=O)CCc4ccccc4)cc32)cc1 in the same way.
Output line: 46 nM

Input line: Also need CCc1ccc(S(=O)(=O)N[C@@H]2c3cc(NC(=O)c4cccc(OC)c4)ccc3C[C@H]2O)cc1 , thanks.
Output line: 50 nM

Input line: What about CCc1ccc(S(=O)(=O)N[C@@H]2c3cc(C(=O)N(CC)Cc4c(F)cccc4Cl)cnc3OC(C)(C)[C@H]2O)cc1 (racemic) ?
Output line: 615 nM

Input line: And then CCc1ccc(S(=O)(=O)N[C@@H]2c3cc(C(=O)N(CC)c4cccc(Cl)c4)cnc3OC(C)(C)[C@H]2O)cc1 (racemic) , what is it?
Output line: 649 nM

* * *

Molecular target: Potassium voltage-gated channel subfamily A member 5 (Homo sapiens)
Assay: Inhibition of human Kv1.5 channel expressed in mouse L929 cells assessed as blockade of ultra rapidly activating potassium current at 1 uM by voltage clamp technique
Assay type: cell-based
Parameter threshold = 50%. Response is Yes when inhibition meets or exceeds it, else No.

Input line: // inclusive: inhibition at least 50%? input: CCc1ccc(S(=O)(=O)N[C@@H]2c3cc(C(=O)N(C)c4ccccc4)cnc3OC(C)(C)[C@H]2O)cc1 (racemic)
Output line: No

Input line: Then what about the molecule CCc1ccc(S(=O)(=O)N[C@@H]2c3cc(C(=O)N4CCN=C4c4ccccc4)cnc3OC(C)(C)[C@H]2O)cc1 (racemic) ?
Output line: No

Input line: Now this one: CCc1ccc(S(=O)(=O)N[C@@H]2c3cc(C(=O)N(CC)c4cc(F)ccc4F)cnc3OC(C)(C)[C@H]2O)cc1 (racemic)
Output line: Yes

Input line: What do you get for CCc1ccc(S(=O)(=O)N[C@@H]2c3cc(C(=O)N(CC)c4ccccc4)cnc3OC(C)(C)[C@H]2O)cc1 (racemic) ?
Output line: Yes

Input line: Follow-up entry: CCc1ccc(S(=O)(=O)N[C@@H]2c3cc(C(=O)N(C)c4ccccc4)ccc3OC(C)(C)[C@H]2O)cc1 (racemic)
Output line: Yes

Input line: // repeat for CCc1ccc(S(=O)(=O)N[C@@H]2c3cc(C(=O)N(CC)Cc4cccc(OC)c4)cnc3OC(C)(C)[C@H]2O)cc1 (racemic) and report
Output line: No

Input line: Next up: CCc1ccc(S(=O)(=O)N[C@@H]2c3cc(C(=O)N(CC)Cc4ccc(OC)cc4)cnc3OC(C)(C)[C@H]2O)cc1 (racemic)
Output line: Yes

Input line: Queued: CCc1ccc(S(=O)(=O)N[C@@H]2c3cc(C(=O)Nc4cc(NC(C)=O)n[nH]4)cnc3OC(C)(C)[C@H]2O)cc1 (racemic)
Output line: No

Input line: Also need CCc1ccc(S(=O)(=O)N[C@@H]2c3cc(C(=O)Nc4ccc(Br)cc4)ccc3OC(C)(C)[C@H]2O)cc1 (racemic) , thanks.
Output line: Yes

The values you see were collected from ChEMBL document CHEMBL1144831.
